assay_summary: PK studies in beagle dogs
Format: in vivo
assay_setup: male, beagle, dog, plasma, iv, 2 mg/kg, beagle dogs, 2 mg/kg intravenous administration
Method: For the PK studies in rats and dogs, a total of 18 SD rats and 15 male beagle dogs were randomly divided into three groups, with six rats or five dogs per group, respectively. […] To determine the concentration of ammoxetine, 100 μL of L-phencynonate (IS, 50 ng/mL) and 300 μL of methanol were added to 100 μL of plasma samples from rats or dogs. […] F was calculated using the formula: F=AUCp.o./AUCi.v.×100% . […]
quantity_measured: AUC(0-t) (ng·h/mL)

chemical_smiles=CNCC[C@H](Oc1cccc2c1OCO2)c1cccs1 quantity_measured=AUC(0-t) unit_descriptor=ng·h/mL measurement=1010
